Entry source: ChEMBL document CHEMBL4321867

# Test system: Escherichia coli
# measurementDescription: microbe, parasite or virus in culture
Exercise: for every item that follows, state its recorded MIC90.
One number for each entry, in µg/mL.

Solved entries (count: 3):
molecule	tgt	quantityName	u	readoutNumber
C[C@@](CCN1Cc2cc(C#CC#C[C@H]3C[C@@H]3[C@@H](O)CO)cn2C1=O)(C(=O)NO)S(C)(=O)=O	Escherichia coli	MIC90	µg/mL	2
C[C@@](CCN1Cc2cc(C#CC#CC3CN(CCF)C3)cn2C1=O)(C(=O)NO)S(C)(=O)=O	Escherichia coli	MIC90	µg/mL	0.25
C[C@@H](O)[C@H]1C(=O)N2C(C(=O)O)=C(SCCNC=N)C[C@H]12 [IMIPENEM ANHYDROUS]	Escherichia coli	MIC90	µg/mL	0.25

Fill in MIC90 for each of the 4 molecules listed.
1. CN1CC(C#CC#Cc2cc3n(c2)C(=O)N(CC[C@](C)(C(=O)NO)S(C)(=O)=O)C3)C1
2. CN(C)c1cc(NC(=O)CNC(C)(C)C)c(O)c2c1C[C@H]1C[C@H]3[C@H](N(C)C)C(O)=C(C(N)=O)C(=O)[C@@]3(O)C(O)=C1C2=O [TIGECYCLINE]
3. C[C@@](CCN1Cc2cc(C#CC#C[C@@H]3C[C@@]3(F)CO)cn2C1=O)(C(=O)NO)S(C)(=O)=O
4. C[C@@](CCN1Cc2cc(C#CC#CC3CN(CCO)C3)cn2C1=O)(C(=O)NO)S(C)(=O)=O

1. 1
2. 1
3. 2
4. 1
